Where do these numbers come from? They come from paper PMC6384913.

Provide the reported Kd of each item.
Biological target: T1, (ABI3-5Sup-ZF)x2 (Arabidopsis thaliana, UniProt F4JCU0 379-406)
T1 chain: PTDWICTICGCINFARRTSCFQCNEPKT
Experiment: ITC; ITC: 50 mM Tris pH 7.5, 150 mM NaCl, 1 mM DTT, 0.1 mM ZnCl2, 25 °C; BLI: 50 mM Tris pH 7.5, 150 mM NaCl, 1 mM DTT, 0.1% BSA, 0.02% Tween, 30 °C
Settings: protein: recombinant; tags: GST cleaved (HRV-3C)
One number for each entry, in nM.

binder: AAAGGAGGAAAA (ssRNA) [(GGA)x2]
Kd, nM: 1000

--- query ---
Lab note: measured Kd of AAAGGUGGUAAA (ssRNA) [(GGU)x2] was 700
